biological target: FGFR1 (UniProt P11362); assay: phosphorylation enrichment, bacterial display (enrichment ratio); higher = better substrate or ligand; peptides without Tyr show the background;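 further: 11-residue human phosphosite peptides and single-mutation variants displayed on the E. coli surface, counted by deep sequencing, each peptide's frequency after selection divided by its frequency in the unselected input library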;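 further: frequency after pTyr selection over input frequency; kinase dosed for 20-30% of maximal phosphorylation in three min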
Sequence (P11362 whole entry, looked up): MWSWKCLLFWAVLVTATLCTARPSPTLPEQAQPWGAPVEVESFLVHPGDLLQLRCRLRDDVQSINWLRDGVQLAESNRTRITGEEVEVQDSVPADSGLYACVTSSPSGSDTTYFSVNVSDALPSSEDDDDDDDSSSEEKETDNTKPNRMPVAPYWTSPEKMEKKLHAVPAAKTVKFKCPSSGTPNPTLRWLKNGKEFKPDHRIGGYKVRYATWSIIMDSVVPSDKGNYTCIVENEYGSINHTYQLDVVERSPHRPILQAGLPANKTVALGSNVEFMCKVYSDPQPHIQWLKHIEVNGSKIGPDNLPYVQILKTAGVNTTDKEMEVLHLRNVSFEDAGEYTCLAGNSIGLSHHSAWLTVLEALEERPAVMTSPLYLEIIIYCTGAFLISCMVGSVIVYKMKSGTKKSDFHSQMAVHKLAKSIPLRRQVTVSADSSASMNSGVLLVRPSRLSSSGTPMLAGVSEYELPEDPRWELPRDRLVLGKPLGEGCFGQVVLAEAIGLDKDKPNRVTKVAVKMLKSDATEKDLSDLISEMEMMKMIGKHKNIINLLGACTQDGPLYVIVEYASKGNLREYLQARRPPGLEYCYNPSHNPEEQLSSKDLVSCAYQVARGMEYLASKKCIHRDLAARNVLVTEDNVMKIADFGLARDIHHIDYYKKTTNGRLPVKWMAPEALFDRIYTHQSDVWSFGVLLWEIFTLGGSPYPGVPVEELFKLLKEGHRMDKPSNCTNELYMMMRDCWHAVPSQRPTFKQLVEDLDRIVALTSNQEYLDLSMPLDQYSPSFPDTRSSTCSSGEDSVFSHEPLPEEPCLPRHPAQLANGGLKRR
readout_kind: phosphorylation enrichment
Kindly provide the number alone.

Some sequences with known phosphorylation enrichment results, for comparison:
• SVKVFYKKCWS [EPHA7_Y202_YF] = 0.507
• RHFVFYFSFLL [PTEN_Y177_R173H_YF] = 0.496

What value of phosphorylation enrichment has been reported for the following sequence? YNDSAYNQQLI [ZPLD1_Y198_T197A]
0.499

What would you report for TILEHYRRTHC [MYBPC3_Y1119_V1115I] ?
0.511

----------
target: Fes (UniProt P07332); assay: phosphorylation enrichment, bacterial display (enrichment ratio); higher = better substrate or ligand; peptides without Tyr show the background
Sequence (P07332 whole entry, looked up): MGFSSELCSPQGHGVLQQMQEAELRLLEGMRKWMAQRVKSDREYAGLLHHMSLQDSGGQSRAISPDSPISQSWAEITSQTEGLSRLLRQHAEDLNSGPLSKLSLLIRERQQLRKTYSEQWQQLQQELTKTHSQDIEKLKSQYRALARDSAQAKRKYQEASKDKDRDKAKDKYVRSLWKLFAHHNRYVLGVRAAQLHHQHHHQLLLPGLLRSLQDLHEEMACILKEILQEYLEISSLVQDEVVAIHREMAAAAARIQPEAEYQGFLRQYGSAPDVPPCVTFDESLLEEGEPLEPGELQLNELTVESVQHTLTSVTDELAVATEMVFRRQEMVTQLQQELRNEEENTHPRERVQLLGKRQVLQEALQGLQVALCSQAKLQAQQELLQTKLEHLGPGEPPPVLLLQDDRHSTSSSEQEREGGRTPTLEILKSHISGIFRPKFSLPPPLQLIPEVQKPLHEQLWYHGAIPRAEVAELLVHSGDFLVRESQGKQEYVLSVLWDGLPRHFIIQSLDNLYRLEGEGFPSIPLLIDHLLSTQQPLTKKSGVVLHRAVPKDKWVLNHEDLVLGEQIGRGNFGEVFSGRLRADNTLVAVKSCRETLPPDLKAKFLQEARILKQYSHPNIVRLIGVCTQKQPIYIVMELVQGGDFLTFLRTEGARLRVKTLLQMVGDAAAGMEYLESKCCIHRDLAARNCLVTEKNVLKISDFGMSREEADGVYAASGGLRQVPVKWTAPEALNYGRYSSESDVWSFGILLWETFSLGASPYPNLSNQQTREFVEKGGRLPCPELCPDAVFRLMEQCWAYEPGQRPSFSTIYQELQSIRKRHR
Rule: phosphorylation enrichment of 0.8 or more gives 1; anything lower gives -1.

Please review the following examples before continuing.
• NFRRGYHLQVL [CD200R1L_Y138_H135R] = -1
• LEQDEYALHSH [HADHB_Y244_R247H] = 1
• VKGGAYNPVTV [MCCC2_Y145_Y146N] = -1
• LVMFIDAIFGM [SCN1A_Y1684_Y1684D] = 1
• TRHDEYLEVTK [MAP1A_Y2217] = 1
• EGELRYMHSRV [ABCD1_Y281_K276E] = -1
• KLIMEYLPYGS [JAK2_Y931] = 1

Is phosphorylation enrichment for FRPPFYHRNCM [HGD_Y334_YF] at or above 0.8?
1

# credit: the supplement of paper PMC10065799
